Target: AgRvs167
Assay: SPOT peptide array binding signal intensity (averaged, normalized) (arbitrary units (background-subtracted, floor 0; scale differs between SH3 domains)); higher = stronger binding of the SH3 domain to the peptide
value kind: SPOT peptide array binding signal intensity
Kindly provide the number alone.

Give the measured SPOT peptide array binding signal intensity of NENKKLPPAPTVFGL .
6.17

Continue with VQQDSLPKLPFRSWG
83.3

Same question for LLLLFVPDSPYDPAI please.
1.67

Repeat for the following binder: TPTSGPPLLPPRNTM
801

Can you handle RRLRDKYKLPIVDAD next?
3.33

Same thing, different binder: ERPKRRAPPPVPKKP
1.83

Same again, this time with RKNRAPPQRPRFNRD
7

Next: RSLRKRPTSPSISGS
9.67

Another binder: KTRLRPAFIQQLWSS
2.83

Again, but for GERSRPLVISILSSA
3.67

Next binder: SLSRRRFSLPSMPNV
5

Same thing, different binder: RRSKSLPITPKSIFN
0.667

Let us now turn to NILKRRPLKLEAPSK
4.5

Request: IKTRSVPKIPSIESV
12.7
